Source of measurements: ChEMBL document CHEMBL6074712

# assay-protocol: physchem
# test-parameters: buffer
# Description: Aqueous solubility of compound
quantity-kind: solubility kinetic

1. O=C(Cn1c(=O)oc2ccc(-c3ccccc3)cc21)NC1(C(=O)O)CCCCC1: ≥ 157 µg/mL
2. O=C(CN1C(=O)COc2ccc(Cl)cc21)NC1(C(=O)O)CCCCC1: ≥ 112 µg/mL
3. O=C(CN1C(=O)COc2ccc(C(F)(F)F)cc21)NC1(C(=O)O)CCCCC1: ≥ 172 µg/mL
